The measurements presented in this section are drawn from the RNAGym collection of RNA variant scans (doi:10.1002/anie.201605470).

B1: Osa-1-4 twister ribozyme (parent)
chain: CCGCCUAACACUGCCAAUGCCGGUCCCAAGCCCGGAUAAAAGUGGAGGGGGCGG

Variants of: B1
Experiment: self-cleavage, relative activity (ratio to wild type); higher = more cleavage; co-transcriptional
Readout Label: self-cleavage

Completed entries (count: 3):
{"columns": ["Mutation String", "self-cleavage"],
 "data": [
  ["A36U C31A", 0.03],
  ["G22U G54C", 0.64],
  ["G45U U12C", 0.06]
]}

Please look at the items below and tell me self-cleavage for each one, in order.
1. C14A C26G
2. C31A U12C
3. C26U C27G
4. A8U G44U
5. A39U G34A
6. A41U G49U

Solution:
0.02
0.02
0.06
0.13
0.68
0.13

Give one value of self-cleavage per listed variant.
1. C14G C32G
2. G34U G49U
3. C15G G51A
4. A40C A8U
5. C31G G22A

Solution:
1: 0.08; 2: 0.11; 3: 0.13; 4: 0.04; 5: 0.11

For each of the variants below, note its self-cleavage.
1. G53C U24G
2. C26U G53C
3. A28G A7G
4. A36G G19C
5. G47A G50C
6. C20A G13U
7. C33U G50A

Solution:
1: 0.01; 2: 0.08; 3: 0.38; 4: 0.13; 5: 0.07; 6: 0.02; 7: 0.32

Problem: // returns reported self-cleavage for input A38C C31U
Solution: 0.89
